Data provenance is ChEMBL document CHEMBL1129933.

molecular target: Platelet-derived growth factor receptor beta (Mus musculus, UniProt P05622); assay: Inhibition of platelet-derived growth factor receptor (PDGFr) autophosphorylation; type: functional
Sequence (P05622 whole entry): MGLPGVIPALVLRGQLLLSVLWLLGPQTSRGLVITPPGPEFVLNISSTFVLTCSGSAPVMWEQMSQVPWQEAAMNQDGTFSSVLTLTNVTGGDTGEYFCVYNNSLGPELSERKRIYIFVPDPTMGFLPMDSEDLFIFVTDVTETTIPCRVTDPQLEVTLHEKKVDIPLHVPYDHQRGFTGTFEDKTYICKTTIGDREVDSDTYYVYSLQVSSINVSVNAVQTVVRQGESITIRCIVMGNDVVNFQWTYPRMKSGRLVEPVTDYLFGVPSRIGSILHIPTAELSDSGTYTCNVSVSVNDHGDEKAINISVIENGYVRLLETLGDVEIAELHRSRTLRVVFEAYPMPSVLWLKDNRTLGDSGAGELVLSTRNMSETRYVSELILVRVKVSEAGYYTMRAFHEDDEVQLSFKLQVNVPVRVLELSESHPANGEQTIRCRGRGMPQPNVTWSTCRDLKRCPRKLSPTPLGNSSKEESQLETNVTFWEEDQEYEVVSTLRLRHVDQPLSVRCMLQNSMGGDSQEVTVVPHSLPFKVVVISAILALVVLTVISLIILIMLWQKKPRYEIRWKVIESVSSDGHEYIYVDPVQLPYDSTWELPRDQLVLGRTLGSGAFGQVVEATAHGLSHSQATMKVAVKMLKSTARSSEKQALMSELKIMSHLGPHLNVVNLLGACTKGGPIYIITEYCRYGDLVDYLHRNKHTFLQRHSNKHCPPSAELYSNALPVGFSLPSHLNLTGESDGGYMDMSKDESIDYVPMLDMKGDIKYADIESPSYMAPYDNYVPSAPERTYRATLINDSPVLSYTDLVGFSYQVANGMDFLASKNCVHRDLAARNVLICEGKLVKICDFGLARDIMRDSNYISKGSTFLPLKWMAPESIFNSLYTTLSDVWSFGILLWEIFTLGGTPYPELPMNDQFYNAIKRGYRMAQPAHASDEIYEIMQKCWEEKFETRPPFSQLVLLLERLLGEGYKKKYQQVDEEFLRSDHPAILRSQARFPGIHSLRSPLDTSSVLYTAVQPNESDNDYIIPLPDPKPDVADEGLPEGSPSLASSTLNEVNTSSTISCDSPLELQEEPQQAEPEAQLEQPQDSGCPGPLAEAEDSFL
Property: IC50

{"Compound": "N[C@H](Cc1c([Se][Se]c2[nH]c3ccccc3c2C[C@H](N)C(=O)NCc2ccccc2)[nH]c2ccccc12)C(=O)NCc1ccccc1 (stereo in doubt; 33)", "IC50": "0.57 µM"}

// below: IC50 requested for another compound
Exam item: IC50 for NC(Cc1c(SSc2[nH]c3ccccc3c2CC(N)C(=O)NCc2ccccc2)[nH]c2ccccc12)C(=O)NCc1ccccc1 (configuration not stated) ?
Marked response: 6.2 µM
